Data origin, for the record: patent US20220402867A1

- assay notes: Pharmacokinetic (PK) assay in mice
- Format: in vivo
- reported conditions: IV 1 mg/kg, CD-1 mice
measured endpoint: CL_obs (mL/min/kg)
Field format: number, assumed mL/min/kg, no unit text.

// solved cases for CL_obs follow
CCS(=O)(=O)c1ccc(-c2c(Cl)cc(NC(=O)C(COC)c3ccc(S(=O)(=O)CC)cc3)cc2Cl)cc1 (stereo not shown) [Example 13]    21.078
CCS(=O)(=O)c1ccc(CC(=O)Nc2cc(Cl)c(-c3ccc(S(C)(=O)=O)cc3)c(Cl)c2)cc1 [Example 2]    7.103
CCS(=O)(=O)c1ccc(-c2c(Cl)cc(NC(=O)Cc3ccc(S(=O)(=O)CC)cn3)cc2Cl)cc1 [Example 5]    22.78

Then this compound:
Task: Fill blank: measured CL_obs of the compound CS(=O)(=O)c1ccc(CC(=O)Nc2cc(Cl)c(-c3ccc(S(=O)(=O)C4CC4)cc3)c(Cl)c2)cc1 [Example 11] is ____.
Result: 2.143

----------
- Test system: human PBMC (Th17 cells)
- assay notes: Th17 differentiation and IL-17 secretion in human PBMC
- Assay type: cell-based
- reported conditions: maximum activation rate, IL-17 ELISA after 48 hours
measured endpoint: Emax (%)
The reply should be a number in %, with the unit left off.

Please review the entries below; each comes with its answer.
CS(=O)(=O)c1ccc(C(CO)C(=O)Nc2cc(Cl)c(-c3ccc(S(=O)(=O)C4CC4)cc3)c(Cl)c2)cc1 (single isomer, unassigned) [Example 36]    169
CCS(=O)(=O)c1ccc(-c2c(Cl)cc(NC(=O)Cc3ccc(S(=O)(=O)CC)cn3)cc2Cl)cc1 [Example 5]    123
CCS(=O)(=O)c1ccc(C(COC)C(=O)Nc2cc(Cl)c(-c3ccc(S(=O)(=O)C4CC4)cc3)c(Cl)c2)cc1 (single isomer, unassigned) [Example 40]    224
CCS(=O)(=O)c1ccc(-c2c(Cl)cc(NC(=O)C(COC)c3ccc(S(C)(=O)=O)cc3)cc2Cl)cc1 (stereo not shown) [Example 19]    232

Task: Reported Emax, molecule CCS(=O)(=O)c1ccc(CC(=O)Nc2cc(Cl)c(-c3ccc(S(=O)(=O)C4CC4)cc3)c(Cl)c2)cc1 [Example 6] : ____
Result: 254

Task: Now try CCS(=O)(=O)c1ccc(CC(=O)Nc2cc(Cl)c(-c3ccc(S(C)(=O)=O)cc3)c(Cl)c2)nc1 [Example 8] .
Result: 129

Task: What about this molecule? CCS(=O)(=O)c1ccc(-c2c(Cl)cc(NC(=O)Cc3ccc(S(C)(=O)=O)cn3)cc2Cl)cc1 [Example 9]
Result: 167

----------
- assay notes: Metabolic stability in mouse liver microsomes
- Assay type: in vitro ADME, CD-1 mice
- reported conditions: CD-1, 0.5 mg protein/mL
measured endpoint: microsomal CLint (µL/min/mg)
Please respond with the number in µL/min/mg and leave the unit unwritten.

CCS(=O)(=O)c1ccc(C(CO)C(=O)Nc2cc(Cl)c(-c3ccc(S(=O)(=O)C4CC4)cc3)c(Cl)c2)cc1 (single isomer, unassigned) [Example 38]    12.9

Task: Consider the molecule CCS(=O)(=O)c1ccc(C(COC)C(=O)Nc2cc(Cl)c(-c3ccc(S(=O)(=O)C4CC4)cc3)c(Cl)c2)cc1 (centres unmarked) [Example 16] and give its measured microsomal CLint.
Result: 10.7

Task: Check CS(=O)(=O)c1ccc(-c2c(Cl)cc(NC(=O)Cc3ccc(S(=O)(=O)CC4CC4)cc3)cc2Cl)cc1 [Example 17] too.
Result: 61.2

Task: Follow-up item: CCS(=O)(=O)c1ccc(C(COC)C(=O)Nc2cc(Cl)c(-c3ccc(S(=O)(=O)C4CC4)cc3)c(Cl)c2)cc1 (single isomer, unassigned) [Example 40]
Result: 11.8

Task: Same question for COCC(C(=O)Nc1ccc(-c2ccc(S(=O)(=O)C3CC3)cc2)c(C(F)(F)F)c1)c1ccc(S(C)(=O)=O)cc1 (single isomer, unassigned) [Example 43] please.
Result: 14.8

Task: Try this molecule too: COCC(C(=O)Nc1cc(Cl)c(-c2ccc(S(=O)(=O)C3CC3)cc2)c(Cl)c1)c1ccc(S(C)(=O)=O)cc1 (centres unmarked) [Example 20]
Result: 10.5

Task: Now consider CCS(=O)(=O)c1ccc(CC(=O)Nc2cc(Cl)c(-c3ccc(S(=O)(=O)C4CC4)cc3)c(Cl)c2)nc1 [Example 21] and answer again.
Result: 17.3

----------
Reported EC50 by item:
- target under test: GST-RORγ LBD (263-509) (Homo sapiens, UniProt P51449)
- Construct: GST-RORγ LBD ((263-509) (produced at ChemPartner))
- assay notes: TR-FRET assay of agonistic activity on RORγ receptor
- reported conditions: TR-FRET, GST-RORγ LBD with Biotin-SRC1
Numbers only here, please. The scale is nM.

These recorded examples may help you get a feel for the data.
CCS(=O)(=O)c1ccc(C(COC)C(=O)Nc2cc(Cl)c(-c3ccc(S(=O)(=O)C4CC4)cc3)c(Cl)c2)cc1 (stereo not drawn) [Example 16]    16.6
CCS(=O)(=O)c1ccc(-c2c(Cl)cc(NC(=O)Cc3ccc(S(C)(=O)=O)cc3)cc2Cl)cc1    9.6
COCC(C(=O)Nc1ccc(-c2ccc(S(=O)(=O)C3CC3)cc2)c(C(F)(F)F)c1)c1ccc(S(C)(=O)=O)cc1 (single isomer, unassigned) [Example 43]    6.2
COCC(C(=O)Nc1ccc(-c2ccc(S(=O)(=O)C3CC3)cc2)c(C(F)(F)F)c1)c1ccc(S(C)(=O)=O)cc1 (stereo not drawn) [Example 42]    12.6
CCS(=O)(=O)c1ccc(C(COC)C(=O)Nc2cc(Cl)c(-c3ccc(S(=O)(=O)C4CC4)cc3)c(Cl)c2)cc1 (single isomer, unassigned) [Example 41]    24.6

Now take the following molecule into account.
Task: Form field: reported EC50 of CS(=O)(=O)c1ccc(C(CO)C(=O)Nc2cc(Cl)c(-c3ccc(S(=O)(=O)C4CC4)cc3)c(Cl)c2)cc1 (stereo not drawn) [Example 33]
Result: 13.3

----------
- target under test: GST-RORγ LBD (263-509) (Homo sapiens)
- Construct: GST-RORγ LBD ((263-509) (produced at ChemPartner))
- Sequence (P51449 263-509): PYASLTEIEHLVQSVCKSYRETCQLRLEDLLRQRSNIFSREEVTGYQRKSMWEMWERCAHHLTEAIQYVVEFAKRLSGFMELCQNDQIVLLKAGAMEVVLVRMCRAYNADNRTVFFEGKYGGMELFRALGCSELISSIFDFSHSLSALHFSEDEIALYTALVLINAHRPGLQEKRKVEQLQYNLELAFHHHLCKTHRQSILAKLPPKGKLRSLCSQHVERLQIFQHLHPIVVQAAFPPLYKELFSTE
- assay notes: TR-FRET assay of agonistic activity on RORγ receptor
- reported conditions: TR-FRET, GST-RORγ LBD with Biotin-SRC1
pEC50: −log10 of the molar value.
So basically: pEC50 at 8 or higher? That is True. Lower than 8? That is False.

CCS(=O)(=O)c1ccc(CC(=O)Nc2cc(Cl)c(-c3ccc(S(=O)(=O)C4CC4)cc3)c(Cl)c2)cc1 [Example 6]    True
CS(=O)(=O)c1ccc(-c2c(Cl)cc(NC(=O)Cc3ccc(S(C)(=O)=O)cn3)cc2Cl)cc1 [Example 10]    False

Task: Check this molecule for pEC50 at or above 8: COCC(C(=O)Nc1cc(Cl)c(-c2ccc(S(=O)(=O)C3CC3)cc2)c(Cl)c1)c1ccc(S(C)(=O)=O)cc1 (single isomer, unassigned) [Example 34]
Result: True

----------
- assay notes: Metabolic stability in human liver microsomes
- Format: in vitro ADME
- reported conditions: 0.5 mg protein/mL
// values below are reported microsomal CLint
Respond with the bare value in µL/min/mg.

// below: answered compounds
COCC(C(=O)Nc1ccc(-c2ccc(S(=O)(=O)C3CC3)cc2)c(C(F)(F)F)c1)c1ccc(S(C)(=O)=O)cc1 (single isomer, unassigned) [Example 43]    13.8
CCS(=O)(=O)c1ccc(CC(=O)Nc2cc(Cl)c(-c3ccc(S(=O)(=O)CC)cc3)c(Cl)c2)cc1 [Example 1]    33.1

Task: Sample COCC(C(=O)Nc1cc(Cl)c(-c2ccc(S(=O)(=O)C3CC3)cc2)c(Cl)c1)c1ccc(S(C)(=O)=O)cc1 (single isomer, unassigned) [Example 34] — what was its microsomal CLint?
Result: 15.6

----------
- assay notes: Pharmacokinetic (PK) assay in mice
- Format: in vivo
- reported conditions: mouse, plasma; IV 1 mg/kg, CD-1 mice
Each entry below carries its reported half-life.
Numbers only here, please. The scale is min.

Worked set:
COCC(C(=O)Nc1ccc(-c2ccc(S(=O)(=O)C3CC3)cc2)c(C(F)(F)F)c1)c1ccc(S(C)(=O)=O)cc1 (single isomer, unassigned) [Example 43]    248
CCS(=O)(=O)c1ccc(-c2c(Cl)cc(NC(=O)C(COC)c3ccc(S(C)(=O)=O)cc3)cc2Cl)cc1 (stereo not drawn) [Example 19]    37.8
CCS(=O)(=O)c1ccc(C(COC)C(=O)Nc2cc(Cl)c(-c3ccc(S(C)(=O)=O)cc3)c(Cl)c2)cc1 (stereo not drawn) [Example 15]    73.8
CCS(=O)(=O)c1ccc(-c2c(Cl)cc(NC(=O)C(COC)c3ccc(S(=O)(=O)CC)cc3)cc2Cl)cc1 (stereo not drawn) [Example 13]    37.8
CS(=O)(=O)c1ccc(C(CO)C(=O)Nc2cc(Cl)c(-c3ccc(S(=O)(=O)C4CC4)cc3)c(Cl)c2)cc1 (single isomer, unassigned) [Example 37]    132

Task: Name the reported half-life value associated with the compound CCS(=O)(=O)c1ccc(-c2c(Cl)cc(NC(=O)Cc3ccc(S(=O)(=O)CC)cn3)cc2Cl)cc1 [Example 5]
Result: 27
